# Procedure summary: Preparation and characterisation of mRNA-encapsulating lipid nanoparticle (encapsulation efficiency, particle size)
# Format: physicochemical
# Assay setup: LNP encapsulating Fluc mRNA; Lipid:DSPC:CHO-HP:M-DMG-2000 48:10:40.5:1.5
Measured Encapsulation efficiency values are reported for all entries that follow.
Numeric answer plus unit only.

Look up Encapsulation efficiency: CCCCCCC(CCCCCC)OC(=O)CCCCCCCCC(CCCCCCCCC(=O)OC(CCCCCC)CCCCCC)OC(=O)N(CCCC(=O)OC(C)CC)CCCN(C)C (stereo not drawn) [Compound 308] 93.71%

***
Look up Encapsulation efficiency: CC/C=C\COC(=O)CCCN(CCCN(C)C)C(=O)OC(CCCCCCCCC(=O)OC(CCCCCC)CCCCCC)CCCCCCCCC(=O)OC(CCCCCC)CCCCCC [Compound 275] 90.61%

Next record, please: CC/C=C\COC(=O)CCCCCN(CCCN(C)C)C(=O)OC(CCCCCCCCC(=O)OC(CCCCCC)CCCCCC)CCCCCCCCC(=O)OC(CCCCCC)CCCCCC [Compound 284] 91.63%

Next record, please: CCCCCCC(CCCCCC)OC(=O)CCCCCCCCC(CCCCCCCCC(=O)OC(CCCCCC)CCCCCC)OC(=O)N(CCCN(C)C)CCC(=O)OC(C)C [Compound 316] 90.67%

Next record, please: CCCCCCC(CCCCCC)OC(=O)CCCCCCCCC(CCCCCCCCC(=O)OC(CCCCCC)CCCCCC)OC(=O)N(CCCN(C)C)CCC(=O)OCCCCC [Compound 265] 94.59%

Next record, please: CCCCCCC(CCCCCC)OC(=O)CCCCCCCCC(CCCCCCCCC(=O)OC(CCCCCC)CCCCCC)OC(=O)N(CCCN1CCCC1)CC(=O)OCC [Compound 367] 91.21%

====

# Tested on: Female BALB/c mice
# Procedure summary: Performance evaluation of in vivo delivery of Fluc mRNA lipid nanoparticle (IVIS, body and organs)
# Assay setup: Fluc mRNA LNP, IV, 6 hours after injection
Values of (Spleen/Total Flux) * 100% strictly less than 0.8% map to label 1, and values of at least 0.8% map to label 0.

Look over these answered cases.
Threshold test, (Spleen/Total Flux) * 100% < 0.8%: CCCCCCC(CCCCCC)OC(=O)CCCCCCCCC(CCCCCCCCC(=O)OC(CCCCCC)CCCCCC)OC(=O)N(CCCCC(=O)OC(CC)CC)CCCN(C)C label 0

Next record, please: CCCCCCCOC(=O)CN(CCCN(C)C)C(=O)OC(CCCCCCCCC(=O)OC(CCCCCC)CCCCCC)CCCCCCCCC(=O)OC(CCCCCC)CCCCCC label 0

Next record, please: CCCCCCC(CCCCCC)OC(=O)CCCCCCCCC(CCCCCCCCC(=O)OC(CCCCCC)CCCCCC)OC(=O)N(CCCN(C)C)CC(=O)OCCCC label 0

***
Threshold test, (Spleen/Total Flux) * 100% < 0.8%: CCCCCCOC(=O)CCN(CCCN(C)C)C(=O)OC(CCCCCCCCC(=O)OCC(CCCC)CCCCCC)CCCCCCCCC(=O)OCC(CCCC)CCCCCC (stereo not shown) label 0

Next record, please: CCCCCCC(CCCCCC)OC(=O)CCCCCCCCC(CCCCCCCCC(=O)OC(CCCCCC)CCCCCC)OC(=O)N(CCCCC(=O)OC(CC)CCC)CCCN(C)C (stereo not shown) label 0

Next record, please: CCCCCCC(CCCCCC)OC(=O)CCCCCCCCC(CCCCCCCCC(=O)OC(CCCCCC)CCCCCC)OC(=O)N(CCCN(C)C)CCC(=O)OC(C)CCCC (stereo not shown) label 1

Next record, please: CCCCCCC(CCCCCC)OC(=O)CCCCCCCCC(CCCCCCCCC(=O)OC(CCCCCC)CCCCCC)OC(=O)N(CCCC(=O)OC(C)CCC)CCCN(C)C (stereo not shown) label 0

Next record, please: CCCCCCC(CCCCCC)OC(=O)CCCCCCCCC(CCCCCCCCC(=O)OC(CCCCCC)CCCCCC)OC(=O)N(CCCN(C)C)CC(=O)OCC label 0

Next record, please: CCCCCCCOC(=O)CCN(CCCN(C)C)C(=O)OC(CCCCCCCCC(=O)OC(CCCCCC)CCCCCC)CCCCCCCCC(=O)OC(CCCCCC)CCCCCC label 1

Next record, please: CCCCCCC(CCCCCC)OC(=O)CCCCCCCCC(CCCCCCCCC(=O)OC(CCCCCC)CCCCCC)OC(=O)N(CCCCC(=O)OC(C)CCCC)CCCN(C)C (stereo not shown) label 0

Next record, please: CCCCCCC(CCCCCC)OC(=O)CCCCCCCCC(CCCCCCCCC(=O)OC(CCCCCC)CCCCCC)OC(=O)N(CCCCCC(=O)OCC)CCCCN1CCCC1 label 1

Next record, please: CCCCCCC(CCCCCC)OC(=O)CCCCCCCCC(CCCCCCCCC(=O)OC(CCCCCC)CCCCCC)OC(=O)N(CCCN(C)C)CCC(=O)OC(C)CCCCC (stereo not shown) label 0

Next record, please: CCCCCCC(C)OC(=O)CN(CCCN(C)C)C(=O)OC(CCCCCCCCC(=O)OC(CCCCCC)CCCCCC)CCCCCCCCC(=O)OC(CCCCCC)CCCCCC (stereo not shown) label 0

Next record, please: CCCCCCC(CCCCCC)OC(=O)CCCCCCCCC(CCCCCCCCC(=O)OC(CCCCCC)CCCCCC)OC(=O)N(CCCN(C)C)CCC(=O)OCCCC label 0

Next record, please: CCCCCCC(CCCC)COC(=O)CCCCCCCCC(CCCCCCCCC(=O)OCC(CCCC)CCCCCC)OC(=O)N(CCCC(=O)OCCCCC)CCCN(C)C (stereo not shown) label 0

Next record, please: CCCCCCC(CCCCCC)OC(=O)CCCCCCCCC(CCCCCCCCC(=O)OC(CCCCCC)CCCCCC)OC(=O)N(CCCCC(=O)OC(C)CCC)CCCN(C)C (stereo not shown) label 0

====

# Tested on: Female BALB/c mice
# Procedure summary: Performance evaluation of in vivo delivery of Fluc mRNA lipid nanoparticle (IVIS, body and organs)
# Assay setup: Fluc mRNA LNP, 75 μL IV, 6 hours after injection, IVIS, spleen
Measured Spleen (fluorescence expression intensity) values are reported for all entries that follow.
Output spec: single numeric token, no unit.

Consider the worked cases shown below.
Look up Spleen (fluorescence expression intensity): CCCCCCC(CCCCCC)OC(=O)CCCCCCCCC(CCCCCCCCC(=O)OC(CCCCCC)CCCCCC)OC(=O)N(CCCN(C)C)CCC(=O)OC(C)C 2.03E+07

Next record, please: CCCCCCCOC(=O)CCN(CCCN(C)C)C(=O)OC(CCCCCCCCC(=O)OCC(CCCC)CCCCCC)CCCCCCCCC(=O)OCC(CCCC)CCCCCC (stereo not drawn) 6.93E+06

Next record, please: CCCCCCC(CCCCCC)OC(=O)CCCCCCCCC(CCCCCCCCC(=O)OC(CCCCCC)CCCCCC)OC(=O)N(CCCCCC(=O)OC(C)CC)CCCN(C)C (stereo not drawn) 2.13E+06

***
Look up Spleen (fluorescence expression intensity): CCCCCCC(CCCCCC)OC(=O)CCCCCCCCC(CCCCCCCCC(=O)OC(CCCCCC)CCCCCC)OC(=O)N(CCCCCC)CCCN(C)C 8.53E+05

Next record, please: CCCCCCC(CCCCCC)OC(=O)CCCCCCCCC(CCCCCCCCC(=O)OC(CCCCCC)CCCCCC)OC(=O)N(CCCC(=O)OC(C)CC)CCCN(C)C (stereo not drawn) 4.93E+06

Next record, please: CCCCCCC(CCCCCC)OC(=O)CCCCCCCCC(CCCCCCCCC(=O)OC(CCCCCC)CCCCCC)OC(=O)N(CCCN(C)C)CC(=O)OCCCC 7.36E+06

Next record, please: CCCCCCC(CCCCCC)OC(=O)CCCCCCCCC(CCCCCCCCC(=O)OC(CCCCCC)CCCCCC)OC(=O)N(CCCCC(=O)OC(CC)CCC)CCCN(C)C (stereo not drawn) 5.44E+06

Next record, please: CCCCCCC(C)OC(=O)CN(CCCN(C)C)C(=O)OC(CCCCCCCCC(=O)OC(CCCCCC)CCCCCC)CCCCCCCCC(=O)OC(CCCCCC)CCCCCC (stereo not drawn) 3.30E+06

Next record, please: CCCCCCC(CCCCCC)OC(=O)CCCCCCCCC(CCCCCCCCC(=O)OC(CCCCCC)CCCCCC)OC(=O)N(CCCCCC(=O)OCC)CCCN1CCCC1 4.45E+06

====

Measured Encapsulation efficiency values are reported for all entries that follow.
# Procedure summary: Preparation and characterisation of mRNA-encapsulating lipid nanoparticle (encapsulation efficiency, particle size)
# Assay type: physicochemical
# Assay setup: LNP encapsulating Fluc mRNA; Lipid:DSPC:CHO-HP:M-DMG-2000 48:10:40.5:1.5
Give the quantity in %, number only.

Look up Encapsulation efficiency: CCCCCCCOC(=O)CCN(CCCN(C)C)C(=O)OC(CCCCCCCCC(=O)OCC(CCCC)CCCCCC)CCCCCCCCC(=O)OCC(CCCC)CCCCCC (stereo not drawn) 92.01

Next record, please: CCCCCCC(C)OC(=O)CN(CCCN(C)C)C(=O)OC(CCCCCCCCC(=O)OC(CCCCCC)CCCCCC)CCCCCCCCC(=O)OC(CCCCCC)CCCCCC (stereo not drawn) 92.38

Next record, please: CCCCCCCC(=O)N(CCCN(C)C)C(CCCCCCCCC(=O)OC(CCCCCC)CCCCCC)CCCCCCCCC(=O)OC(CCCCCC)CCCCCC [Compound 118, reference compound] 90.53
